Below: a set of entries, each annotated with reported IC50.
# System Name: Human immunodeficiency virus type 1 integrase (Human immunodeficiency virus 1, UniProt Q7ZJM1)
# Sequence (Q7ZJM1 whole entry): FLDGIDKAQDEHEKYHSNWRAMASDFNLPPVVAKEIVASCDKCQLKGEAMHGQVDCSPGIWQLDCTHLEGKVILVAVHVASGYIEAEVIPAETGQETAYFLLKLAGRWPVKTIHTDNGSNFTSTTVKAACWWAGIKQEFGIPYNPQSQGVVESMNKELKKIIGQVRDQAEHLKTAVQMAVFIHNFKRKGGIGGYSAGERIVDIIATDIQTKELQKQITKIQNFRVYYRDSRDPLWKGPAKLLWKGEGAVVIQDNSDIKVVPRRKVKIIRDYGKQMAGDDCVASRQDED
Just the number plus its unit, please.

// solved cases for IC50 follow
O=C(NCc1ccc(F)cc1F)c1c(N2CCOCC2)c2cccnc2n(O)c1=O : 77 µM
CCCCCNc1c(C(=O)NCc2ccc(F)cc2F)c(=O)n(O)c2ncccc12 : 8.2 µM
NCCNc1c(C(=O)NCc2ccc(F)cc2F)c(=O)n(O)c2ncccc12 : 4.5 µM
O=C(NCc1ccc(F)cc1F)c1c(NCCc2ccccc2)c2cccnc2n(O)c1=O : 8 µM
CC(=O)OCCNc1c(C(=O)NCc2ccc(F)cc2F)c(=O)n(O)c2ncccc12 : 5.3 µM
COC(=O)CNc1c(C(=O)NCc2ccc(F)cc2F)c(=O)n(O)c2ncccc12 : 0.71 µM

input: Supply IC50 value. Item: `O=C(NCc1ccc(F)cc1F)c1c(Nc2ccc3c(c2)Cc2ccccc2-3)c2cccnc2n(O)c1=O`
output: 46 µM

input: Supply IC50 value. Item: `O=C(NCc1ccc(F)cc1F)c1c(Nc2ccccc2)c2cccnc2n(O)c1=O`
output: 6.9 µM

input: Supply IC50 value. Item: `N#Cc1ccc(-c2ccc(Nc3c(C(=O)NCc4ccc(F)cc4F)c(=O)n(O)c4ncccc34)cc2)cc1`
output: 70 µM

input: Supply IC50 value. Item: `O=C(NCc1ccc(F)cc1F)c1c(NC2CCCCCC2)c2cccnc2n(O)c1=O`
output: 13 µM

input: Supply IC50 value. Item: `Nc1ccc(-c2ccc(Nc3c(C(=O)NCc4ccc(F)cc4F)c(=O)n(O)c4ncccc34)cc2)cc1`
output: 80 µM

###

# Procedure Text: Retention time of the compound by HPLC analysis
# Format: physicochemical
Recorded Endpoint: Retention_time (min)
Response body: numeric value in min, unit text excluded.

// solved cases for Retention_time follow
CCCCCNc1c(C(=O)NCc2ccc(F)cc2F)c(=O)n(O)c2ncccc12 : 23.7
O=C(NCc1ccc(F)cc1F)c1c(NCCCCc2ccccc2)c2cccnc2n(O)c1=O : 26.7
O=C(NCc1ccc(F)cc1F)c1c(NCCc2ccccc2)c2cccnc2n(O)c1=O : 22
O=C(NCc1ccc(F)cc1F)c1c(Nc2ccc(-c3ccccc3)cc2)c2cccnc2n(O)c1=O : 22.8

input: Supply Retention_time value. Item: `COC(=O)[C@H](C)Nc1c(C(=O)NCc2ccc(F)cc2F)c(=O)n(O)c2ncccc12`
output: 26.4

###

# System: Human immunodeficiency virus 1
# Procedure Text: Antiviral activity against INSTI-resistant HIV-1 harboring integrase R263K mutant infected in human HOS cells pretreated with compound for 3 hrs by single-round HIV-1 infectivity assay
# Format: functional, organism-based
# Details: Human immunodeficiency virus 1, HOS
Recorded Endpoint: EC50 (nM)
Response body: numeric value in nM, unit text excluded.

input: Supply EC50 value. Item: `COC(=O)CNc1c(C(=O)NCc2ccc(F)cc2F)c(=O)n(O)c2ncccc12`
output: 26

input: Supply EC50 value. Item: `O=C(NCc1ccc(F)cc1F)c1c(NCCO)c2cccnc2n(O)c1=O`
output: 26

input: Supply EC50 value. Item: `CC(=O)OCCNc1c(C(=O)NCc2ccc(F)cc2F)c(=O)n(O)c2ncccc12`
output: 16

input: Supply EC50 value. Item: C[C@@H]1CCO[C@H]2Cn3cc(C(=O)NCc4ccc(F)cc4F)c(=O)c(O)c3C(=O)N12 [DOLUTEGRAVIR]
output: 11

input: Supply EC50 value. Item: `Nc1c(C(=O)NCc2ccc(F)cc2F)c(=O)n(O)c2ncccc12`
output: 6.4
